Values were extracted from patent US20200317642A1.

Let's look at some compounds and their measured IC50.
- Assay System: EHMT1 (Homo sapiens)
- Assay Procedure: EHMT1 PEP enzyme assay
- Format: biochemical
- Protocol Conditions: Table 3A; read-out: EHMT1 (IC50 μM)
Quantity: IC50

[[record]]
compound = "CNCc1cn(-c2cc3c(cc2Cl)C2(CCC2)C(NC)=N3)nn1"
quantity = "IC50"
observed_value = "< 0.01 µM"

[[record]]
compound = "CNCc1cn(-c2c(Cl)ccc(Nc3nc(C)cc(NC)n3)c2Cl)nn1"
quantity = "IC50"
observed_value = "< 0.01 µM"

[[record]]
compound = "CNC1=Nc2cc(-n3cc(C4CCCN4)nn3)c(Cl)cc2C12CCC2 (stereo not drawn)"
quantity = "IC50"
observed_value = "< 0.01 µM"

[[record]]
compound = "CNc1cc(C)nc(Nc2ccc(OC)c(-n3ncc4c3CCNC4)c2F)n1"
quantity = "IC50"
observed_value = "0.1 to 1 µM"

[[record]]
compound = "CNCc1cn(-c2c(OC)cc3c(c2F)N=C(NC)C32CCC2)nn1"
quantity = "IC50"
observed_value = "0.01 to 0.1 µM"

[[record]]
compound = "CNc1cc(C)nc(Nc2ccc(OC)c(-n3cc4c(n3)CCNC4)c2F)n1"
quantity = "IC50"
observed_value = "0.1 to 1 µM"

[[record]]
compound = "CNC1=Nc2cc(-n3cc([C@@H]4CCCN4)nn3)c(Cl)cc2C12CCC2"
quantity = "IC50"
observed_value = "0.01 to 0.1 µM"

[[record]]
compound = "CNCc1cn(-c2cc(Nc3nc(C)cc(NC)n3)ccc2Cl)nn1"
quantity = "IC50"
observed_value = "< 0.01 µM"

[[record]]
compound = "CNC1=Nc2cc(-c3cc4n(n3)CCN(C)C4)c(Cl)cc2C12CCC2"
quantity = "IC50"
observed_value = "0.1 to 1 µM"

[[record]]
compound = "CNCc1cn(-c2c(OC)ccc(Nc3nc(C)cc(NC)n3)c2F)nn1"
quantity = "IC50"
observed_value = "< 0.01 µM"

[[record]]
compound = "CNc1cc(C)nc(Nc2ccc(OC)c(-n3cc([C@H]4CCCN4)nn3)c2F)n1"
quantity = "IC50"
observed_value = "< 0.01 µM"

[[record]]
compound = "CNC1=Nc2cc(-n3cc([C@H]4CCCN4)nn3)c(Cl)cc2C12CCC2"
quantity = "IC50"
observed_value = "< 0.01 µM"

[[record]]
compound = "CNc1cc(C)nc(Nc2ccc(OC)c(-n3cc(CNC(C)C)cn3)c2F)n1"
quantity = "IC50"
observed_value = "0.1 to 1 µM"

[[record]]
compound = "CNc1cc(C)nc(Nc2ccc(OC)c(-n3cc([C@@H]4CCCN4)nn3)c2F)n1"
quantity = "IC50"
observed_value = "0.01 to 0.1 µM"

[[record]]
compound = "CNC1=Nc2cc(-c3cc4n(n3)CCNC4)c(Cl)cc2C12CCC2"
quantity = "IC50"
observed_value = "0.01 to 0.1 µM"

[[record]]
compound = "CNc1cc(C)nc(Nc2ccc(Cl)c(-n3cc(CN)cn3)c2Cl)n1"
quantity = "IC50"
observed_value = "< 0.01 µM"

[[record]]
compound = "CCNCc1cnn(-c2c(OC)ccc(Nc3nc(C)cc(NC)n3)c2F)c1"
quantity = "IC50"
observed_value = "0.01 to 0.1 µM"

[[record]]
compound = "CNCc1cnn(-c2c(OC)ccc(Nc3nc(NC)cc(C(C)C)n3)c2F)c1"
quantity = "IC50"
observed_value = "< 0.01 µM"


* * *

Entries and their IC50 values follow.
- Assay System: human EHMT2 913-1193 (Homo sapiens)
- Construct: recombinant purified human EHMT2 913-1193, Viva; purchased Viva
- Sequence (Q96KQ7 913-1193): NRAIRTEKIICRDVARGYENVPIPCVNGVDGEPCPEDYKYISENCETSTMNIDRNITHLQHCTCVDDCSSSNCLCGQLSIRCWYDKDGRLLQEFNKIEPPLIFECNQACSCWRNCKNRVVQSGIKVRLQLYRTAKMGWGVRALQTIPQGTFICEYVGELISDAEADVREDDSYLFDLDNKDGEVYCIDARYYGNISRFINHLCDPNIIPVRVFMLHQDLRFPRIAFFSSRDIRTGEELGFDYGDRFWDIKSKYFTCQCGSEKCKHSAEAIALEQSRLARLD
- Assay Procedure: EHMT2 enzyme assay on histone peptide substrate
- Type: biochemical
- Protocol Conditions: Table 3A; histone H3 1-15 peptide, balanced conditions; read-out: EHMT2 (IC50 μM)
Quantity: IC50

[[record]]
compound = "CNC1=Nc2cc(-n3cc([C@H]4CCCN4)nn3)c(Cl)cc2C12CCC2"
quantity = "IC50"
observed_value = "< 0.01 µM"

[[record]]
compound = "CNCc1cn(-c2cc3c(cc2Cl)C2(CCC2)C(N)=N3)nn1"
quantity = "IC50"
observed_value = "0.01 to 0.1 µM"

[[record]]
compound = "CNCc1cn(-c2cc3c(cc2Cl)C2(CCC2)C(NC)=N3)cn1"
quantity = "IC50"
observed_value = "> 1 µM"

[[record]]
compound = "CNCc1cn(-c2cc(Nc3nc(C)cc(NC)n3)ccc2Cl)nn1"
quantity = "IC50"
observed_value = "< 0.01 µM"


* * *

- Assay System: EHMT1 (Homo sapiens, UniProt Q9H9B1)
- Sequence (Q9H9B1 1-1298): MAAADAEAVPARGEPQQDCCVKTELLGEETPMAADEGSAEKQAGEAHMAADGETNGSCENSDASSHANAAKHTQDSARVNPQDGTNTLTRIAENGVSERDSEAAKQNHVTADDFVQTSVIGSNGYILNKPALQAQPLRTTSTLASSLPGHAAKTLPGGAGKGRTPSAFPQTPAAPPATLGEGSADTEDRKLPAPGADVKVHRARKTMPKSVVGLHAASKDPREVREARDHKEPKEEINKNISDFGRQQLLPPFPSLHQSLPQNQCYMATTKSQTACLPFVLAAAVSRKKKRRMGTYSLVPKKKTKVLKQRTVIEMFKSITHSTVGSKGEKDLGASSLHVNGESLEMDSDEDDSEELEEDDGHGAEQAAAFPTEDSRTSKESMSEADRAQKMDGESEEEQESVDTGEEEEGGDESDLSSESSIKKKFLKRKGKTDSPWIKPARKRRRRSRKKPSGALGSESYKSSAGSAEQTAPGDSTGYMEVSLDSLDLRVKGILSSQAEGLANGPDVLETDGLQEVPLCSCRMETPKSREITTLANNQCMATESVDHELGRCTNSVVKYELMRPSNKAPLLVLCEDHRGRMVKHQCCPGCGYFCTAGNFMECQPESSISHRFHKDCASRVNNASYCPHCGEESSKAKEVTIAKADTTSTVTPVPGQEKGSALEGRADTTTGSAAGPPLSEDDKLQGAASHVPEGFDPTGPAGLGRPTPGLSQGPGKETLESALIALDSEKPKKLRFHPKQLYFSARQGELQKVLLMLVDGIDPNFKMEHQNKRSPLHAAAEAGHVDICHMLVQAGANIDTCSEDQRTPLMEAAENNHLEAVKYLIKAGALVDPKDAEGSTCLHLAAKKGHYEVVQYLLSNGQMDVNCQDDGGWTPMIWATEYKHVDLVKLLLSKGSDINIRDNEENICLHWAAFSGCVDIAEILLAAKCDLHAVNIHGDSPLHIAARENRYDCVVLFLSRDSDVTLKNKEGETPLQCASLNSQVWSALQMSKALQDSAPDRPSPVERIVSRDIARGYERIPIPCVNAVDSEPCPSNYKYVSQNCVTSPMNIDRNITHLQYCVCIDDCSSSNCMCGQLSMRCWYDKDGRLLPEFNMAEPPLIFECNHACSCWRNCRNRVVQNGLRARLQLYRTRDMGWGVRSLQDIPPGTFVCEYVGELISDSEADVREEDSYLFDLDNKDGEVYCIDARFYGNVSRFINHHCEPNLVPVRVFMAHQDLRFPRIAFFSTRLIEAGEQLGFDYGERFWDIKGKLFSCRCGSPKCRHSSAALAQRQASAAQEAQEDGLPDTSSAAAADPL
- Assay Procedure: EHMT1 PEP enzyme assay
- Type: biochemical
- Protocol Conditions: Table 3; read-out: EHMT1 PEP (IC50 μM)
Quantity: IC50

[[record]]
molecule = "CNc1cc(C)nc(Nc2ccc(Cl)c(C(=O)NCC3COC3)c2)n1 [Compound 2]"
quantity = "IC50"
observed_value = "1 to 10 µM"

[[record]]
molecule = "CNc1cc(C)nc(Nc2ccc(C)c(C(=O)Nc3cc(C#N)ccn3)c2)n1 [Compound 30]"
quantity = "IC50"
observed_value = "1 to 10 µM"

[[record]]
molecule = "CNc1cc(C)nc(Nc2ccc(OC)c(C#CCN3CCNCC3)c2)n1 [Compound 28]"
quantity = "IC50"
observed_value = "< 0.1 µM"

[[record]]
molecule = "CNc1cc(C)nc(Nc2ccc(OC)c(CNCCN3CC[C@@H](C)C3)c2)n1 [Compound 38]"
quantity = "IC50"
observed_value = "0.1 to 1 µM"

[[record]]
molecule = "CNc1cc(C)nc(Nc2ccc(Cl)c(C(=O)Nc3cn(C)cn3)c2)n1 [Compound 15]"
quantity = "IC50"
observed_value = "> 10 µM"

[[record]]
molecule = "CNc1cc(C)nc(Nc2ccc(OC)c(CNCCN3CCC[C@@H]3C)c2)n1 [Compound 32]"
quantity = "IC50"
observed_value = "0.1 to 1 µM"

[[record]]
molecule = "CNc1cc(C)nc(Nc2ccc(C3CC3)c(CNCCN3CCCC3)c2)n1 [Compound 11]"
quantity = "IC50"
observed_value = "< 0.1 µM"

[[record]]
molecule = "CCCCNC(=O)c1cc(Nc2nc(C)cc(NC)n2)ccc1Cl [Compound 9]"
quantity = "IC50"
observed_value = "0.1 to 1 µM"

[[record]]
molecule = "CNc1cc(C)nc(Nc2ccc(Br)c(CNCCN3CCCC3)c2)n1 [Compound 1]"
quantity = "IC50"
observed_value = "< 0.1 µM"

[[record]]
molecule = "CNc1cc(C)nc(Nc2ccc(Cl)c(C(=O)NC3CCOCC3)c2)n1 [Compound 8]"
quantity = "IC50"
observed_value = "> 10 µM"

[[record]]
molecule = "CNc1cc(C)nc(Nc2ccc(Cl)c(C(=O)NCC3CCC3)c2)n1 [Compound 3]"
quantity = "IC50"
observed_value = "0.1 to 1 µM"

[[record]]
molecule = "CNc1cc(C)nc(Nc2ccc(C)c(C(=O)Nc3cn(C4CC4)cn3)c2)n1 [Compound 36]"
quantity = "IC50"
observed_value = "> 10 µM"

[[record]]
molecule = "CNc1cc(C)nc(Nc2ccc(OC)c(CNCCN3CCC[C@H]3C)c2)n1 [Compound 31]"
quantity = "IC50"
observed_value = "< 0.1 µM"

[[record]]
molecule = "CNc1cc(C)nc(Nc2ccc(C)c(C(=O)Nc3c[nH]cn3)c2)n1 [Compound 37]"
quantity = "IC50"
observed_value = "1 to 10 µM"

